Test system: barnyardgrass
Assay: Test A postemergence
Assay type: in vivo, Echinochloa crus-galli
Details: Postemergence, 500 g ai/ha; visual rating after approx. 10 days, 0 to 100 scale (0 no effect, 100 complete control)
Source text: […]
Reported metric: Barnyardgrass plant response rating
Reply briefly: the number, and no unit.

Compound smiles	Target or system	Barnyardgrass plant response rating
CCCc1cc(C(=O)Nc2ccc(F)cc2)nn1Oc1ccnc(C(F)(F)F)c1	barnyardgrass	0
CCONC(=O)c1cc(CC)n(Cc2cccc(OC(F)(F)F)c2)n1	barnyardgrass	90

"CCc1cc(C(=O)NC2CC2)nn1Cc1ccnc(C(F)(F)F)c1" has a reported Barnyardgrass plant response rating of 90

"Cc1cc(C(=O)NC2CC2)nn1Oc1ccnc(C(F)(F)F)c1" has a reported Barnyardgrass plant response rating of 20

###

System: morningglory
Test: Test C postemergence
Assay type: in vivo, Ipomoea coccinea
Conditions: postemergence; 125 g ai/ha; scale 0 to 100, 0 no effect, 100 complete control
Plant response rating, Morningglory for assorted molecules
Reply briefly: the number, and no unit.

"CCc1cc(C(=O)NOC(C)C)nn1Cc1ccnc(OC(F)F)c1" has a reported Plant response rating, Morningglory of 80

"CCONC(=O)c1cc(CC)n(Cc2cccc(OC(F)(F)F)c2)n1" has a reported Plant response rating, Morningglory of 60

"CCc1cc(C(=O)NCC(F)(F)F)nn1Cc1cc(C(F)(F)F)nn1C" has a reported Plant response rating, Morningglory of 80

"CCOc1cc(C(=O)NOC(C)C)nn1Cc1ccnc(C(F)(F)F)c1" has a reported Plant response rating, Morningglory of 70

"CCCNC(=O)c1cc(OCC)n(Cc2ccnc(C(F)(F)F)c2)n1" has a reported Plant response rating, Morningglory of 80

###

Tested on: ducksalad
Experiment: Test C flooded paddy test
Type: in vivo, Heteranthera limosa
Details: Flood, 250 g ai/ha; scale 0 to 100
Reported metric: Plant response rating, Ducksalad
Reply briefly: the number, and no unit.

Compound smiles	Quantitative result
CCCc1cc(C(=O)NC2CC2)nn1Cc1ccnc(OC(F)F)c1	100
CCCc1cc(C(=O)NC2CC2)nn1Cc1cccc(OC(F)(F)F)c1	80
CCCc1cc(C(=O)NCC(F)(F)F)nn1Cc1cccc(OC(F)(F)F)c1	70
CCOc1cc(C(=O)NCC(F)(F)F)nn1Cc1ccnc(OC(F)F)c1	90
CCNC(=O)c1cc(CCF)n(Cc2ccnc(C(F)(F)F)c2)n1	90
O=C(NC1CC1)c1cc(CCF)n(Cc2ccnc(C(F)(F)F)c2)n1	100

As a next step, examine the compound that follows.
"CCONC(=O)c1cc(CC)n(Cc2cccc(OC(F)(F)F)c2)n1" has a reported Plant response rating, Ducksalad of 75

###

Tested on: velvetleaf
Experiment: Test C preemergence
Format: in vivo, Abutilon theophrasti
Settings: preemergence, 125 g ai/ha; scale 0 to 100, 0 is no effect, 100 is complete control
Reported metric: Velvetleaf plant response rating
Reply briefly: the number, and no unit.

CCc1cc(-c2ccc(C(F)(F)F)cc2)nn1Cc1ccnc(C(F)(F)F)c1 [Compound 110] has a reported Velvetleaf plant response rating of 70

CCCNC(=O)c1cc(CC)n(Cc2nc(C(F)(F)F)nn2C)n1 [Compound 109] has a reported Velvetleaf plant response rating of 100

CCc1cc(C(=O)NC2CC2)nn1Cc1ccnc(C(F)(F)F)c1 [Compound 76] has a reported Velvetleaf plant response rating of 100

CCc1cc(C(=O)NOC(C)C)nn1Cc1ccnc(OC(F)F)c1 [Compound 126] has a reported Velvetleaf plant response rating of 100

CCc1cc(C(=O)NOC(C)C)nn1Cc1cccc(OC(F)(F)F)c1 [Compound 70] has a reported Velvetleaf plant response rating of 75

###

Plant response rating, Oilseed Rape for assorted compounds
Test system: oilseed rape
Test: Test C postemergence
Assay type: in vivo, Brassica napus
Conditions: postemergence, 250 g ai/ha; scale 0 to 100 (0 no effect, 100 complete control)
Reply briefly: the number, and no unit.

These solved cases illustrate the format of a correct answer.
Compound	Plant response rating, Oilseed Rape
CCc1cc(-c2ccc(C(F)(F)F)cc2)nn1Cc1ccnc(C(F)(F)F)c1 [Compound 110]	90
CCCc1cc(C(=O)NCC(F)(F)F)nn1Cc1ccnc(OC(F)F)c1 [Compound 127]	85

CCc1cc(C(=O)NC2CC2)nn1Cc1ccnc(C(F)(F)F)c1 [Compound 76] has a reported Plant response rating, Oilseed Rape of 60

CCCc1cc(C(=O)NC(C)C)nn1Cc1ccnc(C(F)(F)F)c1 [Compound 186] has a reported Plant response rating, Oilseed Rape of 85

CCCc1cc(C(=O)NC2CC2)nn1Cc1cc(C(F)(F)F)nn1C [Compound 202] has a reported Plant response rating, Oilseed Rape of 80

CCOc1cc(C(=O)NOC(C)C)nn1Cc1ccnc(C(F)(F)F)c1 [Compound 153] has a reported Plant response rating, Oilseed Rape of 45

CCCNC(=O)c1cc(CCF)n(Cc2ccnc(C(F)(F)F)c2)n1 [Compound 177] has a reported Plant response rating, Oilseed Rape of 70

CCc1cc(C(=O)NOC(C)C)nn1Cc1ccnc(OC(F)F)c1 [Compound 126] has a reported Plant response rating, Oilseed Rape of 70

###

Test system: velvetleaf
Assay: Test A postemergence
Format: in vivo, Abutilon theophrasti
Settings: Postemergence, 1000 g ai/ha; visual rating after approx. 10 days, 0 to 100 scale (0 no effect, 100 complete control)
Reported metric: Velvetleaf plant response rating

These solved cases illustrate the format of a correct answer.
Compound smiles	Velvetleaf plant response rating
Cc1cc(C(=O)NC(C)(C)C)nn1Cc1cccc(C(F)(F)F)c1	30
CCCNC(=O)c1cc(CC)n(Cc2cccc(C(F)(F)F)c2)n1	100
CCc1cc(C(=O)NC2CC2)nn1Cc1cccc(C(F)(F)F)c1	100
C#CCNC(=O)c1cc(CC)n(Cc2cccc(C(F)(F)F)c2)n1	10

"CCc1cc(C(=O)NCC(C)C)nn1Cc1cccc(OC(F)(F)F)c1" has a reported Velvetleaf plant response rating of 60

###

System: nutsedge, yellow
Assay: Test C preemergence
Type: in vivo, Cyperus esculentus
Conditions: preemergence, 31 g ai/ha; visual rating, scale 0 to 100 (0 no effect, 100 complete control), 13 to 15 days
Reported metric: Nutsedge, Yellow plant response rating
Reply briefly: the number, and no unit.

These solved cases illustrate the format of a correct answer.
Compound smiles	Nutsedge, Yellow plant response rating
CCCNC(=O)c1cc(OCC)n(Cc2ccnc(OC(F)F)c2)n1	30
CCCc1cc(C(=O)NC(C)C)nn1Cc1ccnc(C(F)(F)F)c1	10
CCCNC(=O)c1cc(CC)n(Cc2nc(C(F)(F)F)nn2C)n1	5

Per the reported nutsedge, yellow data, "CCOc1cc(C(=O)NCC(F)(F)F)nn1Cc1cc(C(F)(F)F)nn1C" has Nutsedge, Yellow plant response rating of 15

Per the reported nutsedge, yellow data, "O=C(NCC(F)(F)F)c1cc(CCF)n(Cc2ccnc(C(F)(F)F)c2)n1" has Nutsedge, Yellow plant response rating of 10

Per the reported nutsedge, yellow data, "CCCc1cc(C(=O)NC2CC2)nn1Cc1ccnc(OC(F)F)c1" has Nutsedge, Yellow plant response rating of 40

Per the reported nutsedge, yellow data, "CCCc1cc(C(=O)NC(C)C)nn1Cc1cc(C(F)(F)F)nn1C" has Nutsedge, Yellow plant response rating of 5

###

Tested on: ducksalad
Assay: Test C flooded paddy test
Assay type: in vivo, Heteranthera limosa
Conditions: Flood, 125 g ai/ha; scale 0 to 100
Plant response rating, Ducksalad for assorted compounds
Reply briefly: the number, and no unit.

These solved cases illustrate the format of a correct answer.
Compound smiles	Plant response rating, Ducksalad
CCCc1cc(C(=O)NCC(F)(F)F)nn1Cc1cccc(OC(F)(F)F)c1	50
CCCc1cc(C(=O)NCC(F)(F)F)nn1Cc1ccnc(OC(F)F)c1	60
Cc1cc(C(=O)NCC(F)(F)F)nn1Cc1ccnc(C(F)(F)F)c1	0
CCc1cc(C(=O)NCC2CC2)nn1Cc1cccc(OC(F)(F)F)c1	0

As a next step, examine the compound that follows.
"CCCNC(=O)c1cc(CC)n(Cc2cccc(C(F)(F)F)c2)n1" has a reported Plant response rating, Ducksalad of 95

###

Test system: wheat
Experiment: Test C preemergence
Type: in vivo, Triticum aestivum
Conditions: preemergence, 31 g ai/ha; visual rating, scale 0 to 100 (0 no effect, 100 complete control), 13 to 15 days
Reported metric: Wheat plant response rating
Reply briefly: the number, and no unit.

Compound smiles	Wheat plant response rating
O=C(NC1CC1)c1cc(CCF)n(Cc2ccnc(C(F)(F)F)c2)n1	0
CCOc1cc(C(=O)NCC(F)(F)F)nn1Cc1cc(C(F)(F)F)nn1C	35
CCCc1cc(C(=O)NOC(C)C)nn1Cc1cc(C(F)(F)F)nn1C	40

As a next step, examine the compound that follows.
"CCCNC(=O)c1cc(OCC)n(Cc2ccnc(OC(F)F)c2)n1" has a reported Wheat plant response rating of 10
